Test system: FM3A
Test: Inhibit growth of FM3A cells by 50%
Format: functional, cell-based
Conditions: Mus musculus
pIC50: −log10 of the molar value.
Measured Attribute: pIC50

In [3]: df
Out[3]:
                                   compound  qualifier  observed_measurement
0  CC(C)c1ccc(Cc2ccc(C(C)C)cc(=O)c2O)c(O)c(=O)c1          =                  6.00
1  CC(C)c1ccc(SCCSc2ccc(C(C)C)cc(=O)c2O)c(O)c(=O)c1          =                  5.32
2                     CC(C)c1cccc(=O)c(O)c1          =                  5.96
3  CC(C)C1=CC(=O)C(=O)/C(=C2/C=CC(C(C)C)=CC(O)=C2O)C=C1          =                  5.43
4  COc1ccc(C(c2ccc(C(C)C)cc(=O)c2O)c2ccc(C(C)C)cc(=O)c2O)cc1          =                  6.40
5  COc1ccc(C(c2ccc3cccnc3c2O)c2ccc3cccnc3c2O)cc1          =                  8.00
6  CC(C)c1ccc(CCCCCCCCCCCCc2ccc(C(C)C)cc(=O)c2O)c(O)c(=O)c1          =                  5.89
7  CCOC(c1ccc(OC)cc1)c1ccc(C(C)C)cc(=O)c1O (stereo not given)          =                  5.96
8  CC(C)c1ccc(COCc2ccc(C(C)C)cc(=O)c2O)c(O)c(=O)c1          =                  7.10
9  COc1ccc(C(c2oc(CO)cc(=O)c2O)c2oc(CO)cc(=O)c2O)cc1          <                  3.60

----------
System: FM3A
Test: Inhibit growth of FM3A cells by 50%
Format: functional, cell-based
Details: Mus musculus
Measured Attribute: IC50 (nM)

>>> df
                               smiles_entry  measured_attribute  measure_unit  observed_measurement
0  CC(C)c1ccc(CCc2ccc(C(C)C)cc(=O)c2O)c(O)c(=O)c1                IC50            nM                  1200
1  CC(C)c1ccc(CCCCCCCCc2ccc(C(C)C)cc(=O)c2O)c(O)c(=O)c1                IC50            nM                   900
2                           Oc1cccc2cccnc12                IC50            nM                  2100
3  CC(C)c1ccc(CCCCCCc2ccc(C(C)C)cc(=O)c2O)c(O)c(=O)c1                IC50            nM                   900
4  COc1ccc(C(c2ccc(C(C)C)cc(OC)c2=O)c2ccc(C(C)C)cc(OC)c2=O)cc1                IC50            nM                 14100
